Where do the numbers come from? From patent US12491170B2.

Assay info: Stability in liver microsomes, dog
Please note: met applies when Trep Concentration 20 min is 0.04 µM or greater, and not met applies otherwise.

CCCCCC(CCC1C(O)CC2Cc3c(cccc3OCC(=O)O)CC21)OC(=O)OCC(=O)O (centres unmarked); not met
CCCCCC(CCC1C(O)CC2Cc3c(cccc3OCC(=O)O)CC21)OC(=O)c1cccc(O)c1 (centres unmarked); not met
CCCCCC(CCC1C(O)CC2Cc3c(cccc3OCC(=O)O)CC21)OC(=O)NCCO (centres unmarked); not met

# input for lookup
Ask: // inclusive: Trep Concentration 20 min at least 0.04 µM? input: CCCCCC(CCC1C(O)CC2Cc3c(cccc3OCC(=O)O)CC21)OC(=O)C12CC3CC(CC(C3)C1)C2 (centres unmarked)
Result: met

###

Assay info: Stability in cryopreserved hepatocytes, rat
Protocol conditions: rat
Overview of reported AUC across a group of compounds:
I only need the number, in µmol·min/L, no unit after it.

CCCCCC(CCC1C(O)CC2Cc3c(cccc3OCC(=O)O)CC21)OC(=O)NC (stereo not shown); 0.23
CCCCCC(CCC1C(O)CC2Cc3c(cccc3OCC(=O)O)CC21)OC(=O)c1ccc(C(F)(F)F)cc1 (stereo not shown); 23.09
CCCCCC(CCC1C(O)CC2Cc3c(cccc3OCC(=O)O)CC21)OC(=O)CCN (stereo not shown); 7.00
CCCCCC(CCC1C(O)CC2Cc3c(cccc3OCC(=O)O)CC21)OC(N)=O (stereo not shown); 36.65
CCCCCC(CCC1C(O)CC2Cc3c(cccc3OCC(=O)O)CC21)OC (stereo not shown); 0.56
CCCCCC(CCC1C(O)CC2Cc3c(cccc3OCC(=O)O)CC21)Oc1ccccc1C(=O)O (stereo not shown); 0.00
CCCCCC1CCC2C(CC3Cc4c(cccc4OCC(=O)O)CC32)OP(=O)(Oc2ccccc2)O1 (mixture of isomers); 0.00
CCCCCC(CCC1C(OC(=O)CC)CC2Cc3c(cccc3OCC(=O)O)CC21)OC(=O)CC (stereo not shown) [Prodrug LXX, treprostinil dipropionate]; 56.05
CCCCCC(CCC1C(O)CC2Cc3c(cccc3OCC(=O)O)CC21)OC(=O)c1ccccc1O (stereo not shown); 0.65
CCCCCC(CCC1C(O)CC2Cc3c(cccc3OCC(=O)O)CC21)OC(=O)c1ccc(O)c(O)c1 (stereo not shown); 0.00

API: the following record is the query input.
Ask: State the recorded AUC for this entry: CCCCCC(CCC1C(O)CC2Cc3c(cccc3OCC(=O)O)CC21)OC(=O)CCC(=O)O (stereo not shown)
Result: 63.89

###

Protocol conditions: dog
Please note: MET applies when AUC is 5 µmol·min/L or greater, and NOT MET applies otherwise.

Solved entries:
CCCCCC(CCC1C(O)CC2Cc3c(cccc3OCC(=O)O)CC21)OC(=O)c1ccc(C(F)(F)F)cc1 (stereo not drawn); MET
CCCCCC(CCC1C(O)CC2Cc3c(cccc3OCC(=O)O)CC21)OCOC(=O)C(C)(C)C (stereo not drawn); MET
CCCCCC(CCC1C(OC(=O)OC)CC2Cc3c(cccc3OCC(=O)O)CC21)OC(=O)OC (stereo not drawn) [Prodrug LXXI, treprostinil dicarbonate]; MET
CCCCCC(CCC1C(O)CC2Cc3c(cccc3OCC(=O)O)CC21)OCCC (stereo not drawn); NOT MET

Ask: // inclusive: AUC at least 5 µmol·min/L? input: CCCCCC(CCC1C(OC(=O)CC)CC2Cc3c(cccc3OCC(=O)O)CC21)OC(=O)CC (stereo not drawn) [Prodrug LXX, treprostinil dipropionate]
Result: MET

Ask: // inclusive: AUC at least 5 µmol·min/L? input: CCCCCC(CCC1C(O)CC2Cc3c(cccc3OCC(=O)O)CC21)OC(=O)C(N)CCCCN (stereo not drawn)
Result: NOT MET

Ask: // inclusive: AUC at least 5 µmol·min/L? input: CCCCCC(CCC1C(O)CC2Cc3c(cccc3OCC(=O)O)CC21)OC(=O)CN (stereo not drawn)
Result: MET

Ask: // inclusive: AUC at least 5 µmol·min/L? input: CCCCCC(CCC1C(O)CC2Cc3c(cccc3OCC(=O)O)CC21)OC(C)=O (stereo not drawn)
Result: MET

Ask: // inclusive: AUC at least 5 µmol·min/L? input: CCCCCC(CCC1C(O)CC2Cc3c(cccc3OCC(=O)O)CC21)OC(=O)OC(C)C (stereo not drawn)
Result: MET

Ask: // inclusive: AUC at least 5 µmol·min/L? input: CCCCCC(CCC1C(O)CC2Cc3c(cccc3OCC(=O)O)CC21)OC(=O)c1ccc(O)cc1 (stereo not drawn)
Result: NOT MET

Ask: // inclusive: AUC at least 5 µmol·min/L? input: CCCCCC(CCC1C(O)CC2Cc3c(cccc3OCC(=O)O)CC21)OC(=O)CO (stereo not drawn)
Result: MET

Ask: // inclusive: AUC at least 5 µmol·min/L? input: CCCCCC(CCC1C(O)CC2Cc3c(cccc3OCC(=O)O)CC21)OC(=O)c1cccc(O)c1 (stereo not drawn)
Result: NOT MET

Ask: // inclusive: AUC at least 5 µmol·min/L? input: CCCCCC(CCC1C(O)CC2Cc3c(cccc3OCC(=O)O)CC21)OC(=O)CCN (stereo not drawn)
Result: NOT MET
